Target: human TAS2R44 bitter taste receptor (Homo sapiens, UniProt P59538, L162M)
Construct: The TAS2R44 construct contains RSS tag, TAS2R44, and the HSV tag which are fused in frame; expressed in transfected cells; host or cells: HEK293T cells stably expressing Galpha16-gustducin44
Sequence (P59538 with tags, fused parts or gaps L162M): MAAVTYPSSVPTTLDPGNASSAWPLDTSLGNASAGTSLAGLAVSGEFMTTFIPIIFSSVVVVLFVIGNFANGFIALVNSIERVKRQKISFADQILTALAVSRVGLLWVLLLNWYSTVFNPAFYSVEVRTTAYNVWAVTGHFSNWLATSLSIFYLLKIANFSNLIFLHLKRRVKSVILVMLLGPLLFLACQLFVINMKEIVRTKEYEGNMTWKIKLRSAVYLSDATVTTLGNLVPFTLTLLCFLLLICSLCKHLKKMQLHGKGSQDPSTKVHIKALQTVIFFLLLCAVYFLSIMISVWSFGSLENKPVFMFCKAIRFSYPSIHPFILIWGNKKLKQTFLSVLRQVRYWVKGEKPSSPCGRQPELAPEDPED
Test: TAS2R44 bitter taste receptor Fluo-4 calcium assay for IC50 determination
Type: cell-based
Details: agonist not stated; read-out: IC50 when tested with the TAS2R44 bitter taste receptor
readout-name: IC50

Which IC50 reading was recorded for the compound O=C(O)[C@H]1CC[C@@H](c2ccccc2)CC1 [cis-4-phenylcyclohexanecarboxylic acid] ? 0.1 to 20 µM

Same thing, different compound: `CC(C)(C)[C@H]1CC[C@@H](C(=O)O)CC1` 0.1 to 20 µM

And for `CCC[C@]12CC[C@](C(=O)O)(CC1)CC2` ? 0.1 to 20 µM

What about `CC(C)CCC[C@H]1CC[C@@H](C(=O)O)CC1` ? 0.1 to 20 µM

Same again, this time with O=C(O)[C@H]1CC[C@@H](Cc2ccccc2)CC1 [cis-4-benzylcyclohexanecarboxylic acid] 0.1 to 20 µM

Queued: CCC[C@H]1CC[C@@H](C(=O)O)CC1 [cis-4-propylcyclohexanecarboxylic acid] 0.1 to 20 µM

One more compound: CCC(C)[C@H]1CC[C@@H](C(=O)O)CC1 (stereo partly shown) 0.1 to 20 µM
